Experiment: clinical
Conditions: human, in vivo, 1.3 mg/m2, t1/2
measured.metric: half-life (h)
Quick note: give the figure in h, leave out the unit.

Need half-life, item CC[C@@]1(O)C(=O)OCc2c1cc1n(c2=O)Cc2cc3c(CN(C)C)c(O)ccc3nc2-1 [Topotecan, reference compound] 4.32

----------
Test: clinical
Details: human, in vivo, 35 mg/m2, Tmax
# Tmax listing for each entry below
Entry rule: numbers only, all in min.

Consider the worked cases shown below.
INSERT INTO results (compound, quantitative_result) VALUES
  ('CC[C@@]1(OC(=O)[C@@H](C)O)C(=O)OCc2c1cc1n(c2=O)Cc2cc3c(CN(C)C)c(O)ccc3nc2-1 [TLC-U1, S,R-topotecan lactate]', 38.3),
  ('CC[C@@]1(OC(=O)[C@H](C)O)C(=O)OCc2c1cc1n(c2=O)Cc2cc3c(CN(C)C)c(O)ccc3nc2-1 [TLC-U2, S,S-topotecan lactate]', 36.5);

Using the record for CC[C@@]1(O)C(=O)OCc2c1cc1n(c2=O)Cc2cc3c(CN(C)C)c(O)ccc3nc2-1 [Topotecan, reference compound] , report its Tmax. 60
